Provide the recorded MIC for the entries that follow.
- System: M. smegmatis clone overexpressing recombinant MtbTopI (M+ strain)
- MEASUREMENT_DESCRIPTION: microbe, parasite or virus in culture
- Format: cell-based, Mycobacterium smegmatis
- SETUP_CONDITIONS: Mycolicibacterium smegmatis, 48 h, read-out: M+ Growth Inhibition (MIC)

# example entries with known answers
{"COMPOUND": "Cc1c(C(=O)N2CCCCC2CCc2ccc(O)cc2)oc2c(F)cccc12 (centres unmarked)", "MIC": "> 500 µM"}
{"COMPOUND": "Cc1ccc2[nH]c(C3CCN(C(=O)c4oc5ccc(C)cc5c4C)CC3)nc2c1", "MIC": "> 500 µM"}
{"COMPOUND": "Cc1c(C(=O)N2CCC(c3nnc(-c4nccc5ccccc45)o3)CC2)oc2ccccc12", "MIC": "> 250 µM"}
{"COMPOUND": "COc1ccc2c(c1)NC1(CCN(C(=O)Cc3c[nH]c4ccccc34)CC1)NS2(=O)=O", "MIC": "> 250 µM"}

Please report MIC for every entry that follows.
1. Cc1cc2oc(C(=O)N3CCC(c4nc5ccccc5[nH]4)CC3)c(C)c2cc1C
2. Cc1ccc2oc(C(=O)N3CCC(O)(c4cccc(C(F)(F)F)c4)CC3)c(C)c2c1
3. Cc1ccc2c(C)c(C(=O)N3CCC4(CC(=O)c5ccccc5O4)C3)oc2c1 (centres unmarked)
4. Cc1ccc(CN2C[C@]34C=C[C@H](O3)C(C(=O)N3CCn5cccc5C3)C4C2=O)cc1C (some centres unmarked)

(A)
1: > 500 µM; 2: > 500 µM; 3: > 500 µM; 4: > 500 µM
